Listed next: entries and their corresponding viability, T/C.
test system: SUM149PT spheroids with HUVEC/MSC, viability; assay: Anticancer human tumor SUM149PT cell line growth inhibition [GQUAD]; conditions: second compound 0.1 µM; first compound 3.16 µM; stronger effect = lower value;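 note: spheroids exposed to drugs for seven days before readout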;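 for viability, T/C: percent viability relative to DMSO vehicle control taken as 100%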
Quick reminder: number only, in %, skip the unit.

Example cases with answers are listed next.
compound	viability, T/C, %
O=c1[nH]cc(F)c(=O)[nH]1 + Cc1[nH]c2ccc(F)cc2c1-c1nc2c3cccnc3c3ncccc3c2[nH]1	58.3
CC1COCCN1c1cc(-c2ccnn2C)c2ccnc(-c3ccn[nH]3)c2n1 (stereo not drawn) + Cc1[nH]c2ccc(F)cc2c1-c1nc2c3cccnc3c3ncccc3c2[nH]1	28.6

Okay, now this compound:
SUM149PT spheroids with HUVEC/MSC, viability viability, T/C of CC1COCCN1c1cc(-c2ccnn2C)c2ccnc(-c3ccn[nH]3)c2n1 (stereo not drawn) + CN(C)c1ccc(Nc2c3ccc(NC(=O)CCN4CCCC4)cc3nc3cc(NC(=O)CCN4CCCC4)ccc23)cc1 is 30

====

test system: SUM149PT spheroids with HUVEC/MSC, viability; test: Anticancer human tumor SUM149PT cell line growth inhibition [GQUAD]; conditions: second compound 0.0316 µM; first compound 3.16 µM; stronger effect = lower value;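 note: spheroids exposed to drugs for seven days before readout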;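 for viability, T/C: percent viability relative to DMSO vehicle control taken as 100%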
Listed next: entries and their corresponding viability, T/C.

compound	viability, T/C
CC(C)(O)C1CCC(Nc2ccc3ncc(-c4cccc(C(F)(F)F)c4)n3n2)CC1 (stereo unspecified) + CN(C)c1ccc(Nc2c3ccc(NC(=O)CCN4CCCC4)cc3nc3cc(NC(=O)CCN4CCCC4)ccc23)cc1	53.6%
Nc1ccn(C2OC(CO)C(O)C2(F)F)c(=O)n1 (stereo unspecified) + CN(C)c1ccc(Nc2c3ccc(NC(=O)CCN4CCCC4)cc3nc3cc(NC(=O)CCN4CCCC4)ccc23)cc1	25.9%
COc1cccc2c1C(=O)c1c(O)c3c(c(O)c1C2=O)CC(O)(C(=O)CO)CC3OC1CC(N)C(O)C(C)O1 (stereo unspecified) + Cc1[nH]c2ccc(F)cc2c1-c1nc2c3cccnc3c3ncccc3c2[nH]1	2.87%
CC(C)(O)C1CCC(Nc2ccc3ncc(-c4cccc(C(F)(F)F)c4)n3n2)CC1 (stereo unspecified) + Cc1cnc(CNC(=O)c2c(=O)c3ccc(N4CCCN(C)CC4)nc3n3c2sc2ccccc23)cn1	32.6%
CC1COCCN1c1cc(C2(S(C)(=N)=O)CC2)nc(-c2ccnc3[nH]ccc23)n1 (stereo unspecified) + CN(C)c1ccc(Nc2c3ccc(NC(=O)CCN4CCCC4)cc3nc3cc(NC(=O)CCN4CCCC4)ccc23)cc1	44.2%

Entry COc1cccc2c1C(=O)c1c(O)c3c(c(O)c1C2=O)CC(O)(C(=O)CO)CC3OC1CC(N)C(O)C(C)O1 (stereo unspecified) + Cc1cnc(CNC(=O)c2c(=O)c3ccc(N4CCCN(C)CC4)nc3n3c2sc2ccccc23)cn1 — recorded viability, T/C = 1.37%

Entry O=C(NO)c1cnc(N2CCN(S(=O)(=O)c3ccc4ccccc4c3)CC2)nc1 + Cc1cnc(CNC(=O)c2c(=O)c3ccc(N4CCCN(C)CC4)nc3n3c2sc2ccccc23)cn1 — recorded viability, T/C = 0.95%

====

Listed next: entries and their corresponding viability, T/C.
system: SUM149PT spheroids with HUVEC/MSC, viability; assay: Anticancer human tumor SUM149PT cell line growth inhibition [GQUAD]; conditions: second compound 0.0316 µM; first compound 3.16 µM; stronger effect = lower value;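 note: spheroids exposed to drugs for seven days before readout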;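 for viability, T/C: percent viability relative to DMSO vehicle control taken as 100%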
Quick reminder: number only, in %, skip the unit.

Example cases with answers are listed next.
compound	viability, T/C [%]
CC(C)n1c(=O)n(C)c2cnc3cc(F)c(-c4ccc(OCCCN5CCCCC5)nc4)cc3c21 + Cc1cnc(CNC(=O)c2c(=O)c3ccc(N4CCCN(C)CC4)nc3n3c2sc2ccccc23)cn1	59.9
Nc1ccn(C2OC(CO)C(O)C2(F)F)c(=O)n1 (stereo not given) + Cc1[nH]c2ccc(F)cc2c1-c1nc2c3cccnc3c3ncccc3c2[nH]1	17
CC1COCCN1c1cc(C2(O)CC3CCC(C2)O3)c2cnn(-c3ccn[nH]3)c2n1 (stereo not given) + CN(C)c1ccc(Nc2c3ccc(NC(=O)CCN4CCCC4)cc3nc3cc(NC(=O)CCN4CCCC4)ccc23)cc1	31.2
C#Cc1c(F)ccc2cc(O)cc(-c3ncc4c(N5CC6CCC(C5)N6)nc(OCC56CCCN5CC(F)C6)nc4c3F)c12 (stereo not given) + Cc1cnc(CNC(=O)c2c(=O)c3ccc(N4CCCN(C)CC4)nc3n3c2sc2ccccc23)cn1	36.6

Entry O=C(NO)c1cnc(N2CCN(S(=O)(=O)c3ccc4ccccc4c3)CC2)nc1 + Cc1[nH]c2ccc(F)cc2c1-c1nc2c3cccnc3c3ncccc3c2[nH]1 — recorded viability, T/C = 0.22

====

tested on: SUM149PT spheroids with HUVEC/MSC, viability; assay: Anticancer human tumor SUM149PT cell line growth inhibition [GQUAD]; conditions: curve of first compound; second compound 1 µM;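 note: spheroids exposed to drugs for seven days before readout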
Listed next: entries and their corresponding IC50.

Example cases with answers are listed next.
compound	IC50
COc1cc(C2c3cc4c(cc3C(OC3OC5COC(C)OC5C(O)C3O)C3COC(=O)C23)OCO4)cc(OC)c1O (stereo unspecified) + Cc1cnc(CNC(=O)c2c(=O)c3ccc(N4CCCN(C)CC4)nc3n3c2sc2ccccc23)cn1	< 31.6 nM
CC(C)n1c(=O)n(C)c2cnc3cc(F)c(-c4ccc(OCCCN5CCCCC5)nc4)cc3c21 + Cc1cnc(CNC(=O)c2c(=O)c3ccc(N4CCCN(C)CC4)nc3n3c2sc2ccccc23)cn1	< 31.6 nM
CCCS(=O)(=O)Nc1ccc(F)c(C(=O)c2c[nH]c3ncc(-c4ccc(Cl)cc4)cc23)c1F + Cc1[nH]c2ccc(F)cc2c1-c1nc2c3cccnc3c3ncccc3c2[nH]1	9080 nM

Entry CC[C@@]1(O)C(=O)OCc2c1cc1n(c2=O)Cc2cc3c(CN(C)C)c(O)ccc3nc2-1 + Cc1[nH]c2ccc(F)cc2c1-c1nc2c3cccnc3c3ncccc3c2[nH]1 — recorded IC50 = 78.3 nM

Entry Cn1ncnc1[C@H]1c2n[nH]c(=O)c3cc(F)cc(c23)N[C@@H]1c1ccc(F)cc1 + Cc1cnc(CNC(=O)c2c(=O)c3ccc(N4CCCN(C)CC4)nc3n3c2sc2ccccc23)cn1 — recorded IC50 = < 0.999 nM

Entry C=CC(=O)N1CCN(c2nc(=O)n(-c3c(C)ccnc3C(C)C)c3nc(-c4c(O)cccc4F)c(F)cc23)C(C)C1 (stereo unspecified) + Cc1cnc(CNC(=O)c2c(=O)c3ccc(N4CCCN(C)CC4)nc3n3c2sc2ccccc23)cn1 — recorded IC50 = < 31.6 nM

====

test system: SUM149PT spheroids with HUVEC/MSC, viability; experiment: Anticancer human tumor SUM149PT cell line growth inhibition [GQUAD]; conditions: second compound 1 µM; first compound 0.0316 µM; stronger effect = lower value;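 note: spheroids exposed to drugs for seven days before readout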;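 for viability, T/C: percent viability relative to DMSO vehicle control taken as 100%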
Listed next: entries and their corresponding viability, T/C.

Example cases with answers are listed next.
molecule	viability, T/C
COc1cccc2c1C(=O)c1c(O)c3c(c(O)c1C2=O)CC(O)(C(=O)CO)CC3OC1CC(N)C(O)C(C)O1 (stereo unspecified) + Cc1cnc(CNC(=O)c2c(=O)c3ccc(N4CCCN(C)CC4)nc3n3c2sc2ccccc23)cn1	44.2%
CC1COCCN1c1cc(-c2ccnn2C)c2ccnc(-c3ccn[nH]3)c2n1 (stereo unspecified) + Cc1[nH]c2ccc(F)cc2c1-c1nc2c3cccnc3c3ncccc3c2[nH]1	92.4%
CC(C)(O)C1CCC(Nc2ccc3ncc(-c4cccc(C(F)(F)F)c4)n3n2)CC1 (stereo unspecified) + CN(C)c1ccc(Nc2c3ccc(NC(=O)CCN4CCCC4)cc3nc3cc(NC(=O)CCN4CCCC4)ccc23)cc1	89.6%
C#Cc1c(F)ccc2cc(O)cc(-c3ncc4c(N5CC6CCC(C5)N6)nc(OCC56CCCN5CC(F)C6)nc4c3F)c12 (stereo unspecified) + Cc1cnc(CNC(=O)c2c(=O)c3ccc(N4CCCN(C)CC4)nc3n3c2sc2ccccc23)cn1	34.1%
Nc1ccn(C2OC(CO)C(O)C2(F)F)c(=O)n1 (stereo unspecified) + CN(C)c1ccc(Nc2c3ccc(NC(=O)CCN4CCCC4)cc3nc3cc(NC(=O)CCN4CCCC4)ccc23)cc1	65.8%

Entry O=C(c1cc(Cc2n[nH]c(=O)c3ccccc23)ccc1F)N1CCN(C(=O)C2CC2)CC1 + CN(C)c1ccc(Nc2c3ccc(NC(=O)CCN4CCCC4)cc3nc3cc(NC(=O)CCN4CCCC4)ccc23)cc1 — recorded viability, T/C = 85.3%

Entry CC1COCCN1c1cc(C2(O)CC3CCC(C2)O3)c2cnn(-c3ccn[nH]3)c2n1 (stereo unspecified) + CN(C)c1ccc(Nc2c3ccc(NC(=O)CCN4CCCC4)cc3nc3cc(NC(=O)CCN4CCCC4)ccc23)cc1 — recorded viability, T/C = 68.2%

Entry O=c1[nH]cc(F)c(=O)[nH]1 + Cc1[nH]c2ccc(F)cc2c1-c1nc2c3cccnc3c3ncccc3c2[nH]1 — recorded viability, T/C = 103%

Data provenance is PubChem BioAssay AID2060484.
